# Experiment Description: Cytotoxicity against human MT4 cells by MTT assay
# Assay type: cell-based
# CC50 listing for each entry below

NC(=O)Cc1cn([C@H]2C[C@H](O)[C@@H](CO)O2)c(=O)[nH]c1=O    > 200 µM

Which CC50 is listed for Nc1nc(=O)n([C@H]2C[C@H](O)[C@@H](CO)O2)cc1CO ?
> 200 µM

Which CC50 is listed for O=c1[nH]c(=O)n([C@H]2C[C@H](O)[C@@H](CO)O2)cc1O ?
> 200 µM

Which CC50 is listed for NC(=O)Cn1c(=O)ccn([C@H]2C[C@H](O)[C@@H](CO)O2)c1=O ?
> 200 µM

Which CC50 is listed for NC(=O)Cc1cn([C@H]2C[C@H](O)[C@@H](CO)O2)c(=O)nc1N ?
> 200 µM

Which CC50 is listed for NC(=O)c1cn([C@H]2C[C@H](O)[C@@H](CO)O2)c(=O)[nH]c1=O ?
> 200 µM

Which CC50 is listed for O=c1[nH]c(=O)n([C@H]2C[C@H](O)[C@@H](CO)O2)cc1CO ?
130 µM

Which CC50 is listed for Cc1cn([C@H]2C[C@H](N=[N+]=[N-])[C@@H](CO)O2)c(=O)[nH]c1=O ?
> 1 µM

Which CC50 is listed for NC(=O)c1cn([C@H]2C[C@H](O)[C@@H](CO)O2)c(=O)nc1N ?
> 200 µM

---

# CC50 listing for each entry below
# Experiment Description: Cytotoxicity against human CEM-SS cells by MTT assay
# Format: cell-based

NC(=O)c1cn([C@H]2C[C@H](O)[C@@H](CO)O2)c(=O)[nH]c1=O    > 200 µM
Nc1nc(=O)n([C@H]2C[C@H](O)[C@@H](CO)O2)cc1CO    > 200 µM
NC(=O)c1cn([C@H]2C[C@H](O)[C@@H](CO)O2)c(=O)nc1N    > 200 µM
NC(=O)Cn1c(=O)ccn([C@H]2C[C@H](O)[C@@H](CO)O2)c1=O    > 200 µM

Which CC50 is listed for Cc1cn([C@H]2C[C@H](N=[N+]=[N-])[C@@H](CO)O2)c(=O)[nH]c1=O ?
> 1 µM

Which CC50 is listed for O=c1[nH]c(=O)n([C@H]2C[C@H](O)[C@@H](CO)O2)cc1CO ?
120 µM

Which CC50 is listed for O=c1[nH]c(=O)n([C@H]2C[C@H](O)[C@@H](CO)O2)cc1O ?
> 200 µM

Which CC50 is listed for NC(=O)Cc1cn([C@H]2C[C@H](O)[C@@H](CO)O2)c(=O)[nH]c1=O ?
> 200 µM

Which CC50 is listed for NC(=O)Cc1cn([C@H]2C[C@H](O)[C@@H](CO)O2)c(=O)nc1N ?
> 200 µM

---

# Tested on: Human immunodeficiency virus 1
# Experiment Description: Antiviral activity against HIV1 LAI in human CEM-SS cells assessed as RT activity after 5 days by single passage assay
# Type: functional, organism-based
# Reported Conditions: Human immunodeficiency virus 1, LAI, 120 h
# IC50 listing for each entry below

O=c1[nH]c(=O)n([C@H]2C[C@H](O)[C@@H](CO)O2)cc1CO    30 µM
NC(=O)Cc1cn([C@H]2C[C@H](O)[C@@H](CO)O2)c(=O)nc1N    > 200 µM
NC(=O)c1cn([C@H]2C[C@H](O)[C@@H](CO)O2)c(=O)nc1N    > 200 µM
Nc1nc(=O)n([C@H]2C[C@H](O)[C@@H](CO)O2)cc1CO    24 µM
O=c1[nH]c(=O)n([C@H]2C[C@H](O)[C@@H](CO)O2)cc1O    > 200 µM
NC(=O)c1cn([C@H]2C[C@H](O)[C@@H](CO)O2)c(=O)[nH]c1=O    > 200 µM
NC(=O)Cn1c(=O)ccn([C@H]2C[C@H](O)[C@@H](CO)O2)c1=O    > 200 µM

Attention now shifts to the item below.
Which IC50 is listed for NC(=O)Cc1cn([C@H]2C[C@H](O)[C@@H](CO)O2)c(=O)[nH]c1=O ?
> 200 µM

The measured values listed here are drawn from ChEMBL document CHEMBL1156918.
